Molecular target: recombinant human His-ATG7 enzyme (Homo sapiens (Human), UniProt O95352)
Sequence (O95352 whole entry): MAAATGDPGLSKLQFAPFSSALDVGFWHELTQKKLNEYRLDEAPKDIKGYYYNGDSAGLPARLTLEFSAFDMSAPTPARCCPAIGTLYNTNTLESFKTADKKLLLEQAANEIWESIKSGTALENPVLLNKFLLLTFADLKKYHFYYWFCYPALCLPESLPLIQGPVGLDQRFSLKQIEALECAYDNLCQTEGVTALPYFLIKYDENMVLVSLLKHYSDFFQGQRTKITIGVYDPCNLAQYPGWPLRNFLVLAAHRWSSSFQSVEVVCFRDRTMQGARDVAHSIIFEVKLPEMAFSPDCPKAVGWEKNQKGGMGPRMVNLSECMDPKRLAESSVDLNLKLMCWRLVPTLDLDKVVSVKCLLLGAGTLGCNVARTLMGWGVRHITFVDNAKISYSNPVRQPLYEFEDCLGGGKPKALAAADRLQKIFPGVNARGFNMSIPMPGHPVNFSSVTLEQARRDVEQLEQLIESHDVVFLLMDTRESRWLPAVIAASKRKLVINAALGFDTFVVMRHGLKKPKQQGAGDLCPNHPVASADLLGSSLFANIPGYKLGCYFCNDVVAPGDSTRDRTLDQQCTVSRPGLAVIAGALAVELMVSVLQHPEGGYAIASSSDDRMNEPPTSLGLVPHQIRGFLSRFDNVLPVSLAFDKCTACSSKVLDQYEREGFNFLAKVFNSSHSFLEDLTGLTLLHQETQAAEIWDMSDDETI
Assay: ATG7 Enzyme Assay (HTRF/FRET, ATG3-GST and Flag-Gabarap)
Format: biochemical
Conditions: Concentration 0.111 μM; read-out: Percent Inhibition
Class (by inhibition at 0.111 µM) -- low = under 50%, mid = from 50% up to 60%, high = 60% and over

See these solved cases before continuing.
Prompt: Band assignment needed for CCSc1nn([C@H]2C[C@H](O)[C@@H](COS(N)(=O)=O)O2)c2ncnc(N)c12 please.
Completion: high

Prompt: Consider COc1ccc(Sc2nn([C@H]3C[C@H](O)[C@@H](COS(N)(=O)=O)O3)c3ncnc(N)c23)cc1OC . To which inhibition at 0.111 µM class does it belong?
Completion: high

Prompt: Please indicate the class for Nc1ncnc2c1c(SC1CCC1)nn2[C@H]1C[C@H](O)[C@@H](COS(N)(=O)=O)O1 based on its inhibition at 0.111 µM.
Completion: high

Prompt: Category of Nc1ncnc2c1c(Sc1ccccc1)nn2[C@@H]1O[C@H](COS(N)(=O)=O)[C@@H](O)[C@H]1O , please.
Completion: high

Prompt: Which bin should I file Nc1ncnc2c1c(C1CC1)nn2[C@@H]1O[C@H](COS(N)(=O)=O)[C@@H](O)[C@@H]1F under?
Completion: low

# ---- query compound ----
Prompt: Which of the defined bands does the recorded inhibition at 0.111 µM of Nc1ncnc2c1c(Sc1ccccc1F)nn2[C@H]1C[C@H](O)[C@@H](COS(N)(=O)=O)O1 sit within?
Completion: high

* * *

Each entry below carries its reported pIC50.
Target: recombinant human His-ATG7 enzyme (Homo sapiens (Human), UniProt O95352)
Experiment: ATG7 Enzyme Assay (HTRF/FRET, ATG3-GST and Flag-Gabarap)
Assay type: biochemical
Description: Example 97: ATG7 Enzyme Assay The total volume of the ATG7 enzymatic assay is 50 μL and contains 50 mM HEPES Hemisodium (pH 7.5), 0.05% BSA, 0.01% Tween-20, 25 mM NaCl, 5 mM MgCl2, 10 μM ATP, 250 μM GSH, 5 nM ATG3-GST, 5 nM Flag-Gabarap, 100 μM TCEP and 0.15 nM recombinant human His-ATG7 enzyme. […] After incubation for 2 hours at 24° C., quantification of FRET is performed on the Pherostar™ (BMG Labtech). […]
pIC50: −log10 of the molar value.

Prompt: For the compound shown here, NC(=O)CSc1nn([C@H]2C[C@H](O)[C@@H](COS(N)(=O)=O)O2)c2ncnc(N)c12 , give the reported pIC50.
Completion: 6.30 to 7.00

Prompt: I have this compound here, Nc1ncnc2c1c(Sc1ccc(F)cc1)nn2[C@H]1C[C@H](O)[C@@H](COS(N)(=O)=O)O1 , and I need its recorded pIC50.
Completion: 7.00 to 7.30

Prompt: Entry CC(C)Sc1nn([C@H]2C[C@H](O)[C@@H](COS(N)(=O)=O)O2)c2ncnc(N)c12 : reported pIC50 = ?
Completion: 7.30 to 7.70

Prompt: Any idea what pIC50 was measured for CC(C)CSc1nn([C@@H]2O[C@H](COS(N)(=O)=O)[C@@H](O)[C@H]2O)c2ncnc(N)c12 ?
Completion: 7.30 to 7.70

Prompt: May I ask what pIC50 has been recorded for COc1nn([C@@H]2O[C@H](COS(N)(=O)=O)[C@@H](O)[C@@H]2F)c2ncnc(N)c12 ?
Completion: 6.30 to 7.00

Prompt: Give the measured pIC50 of NCc1nn([C@@H]2O[C@H](COS(N)(=O)=O)[C@@H](O)[C@H]2O)c2ncnc(N)c12 .
Completion: < 6.30

More entries:
Prompt: Endpoint output: pIC50 of Nc1ncnc2c1c(SC1CCCC1O)nn2[C@@H]1O[C@H](COS(N)(=O)=O)[C@@H](O)[C@H]1O (mixture of isomers) . Value?
Completion: 7.30 to 7.70
